Taken from paper PMC10958042.

B1: ATGL (PNPLA2, patatin-like phospholipase domain-containing protein 2), human, full length / perilipin-1, mouse (mPlin1) (parent)
chain 1: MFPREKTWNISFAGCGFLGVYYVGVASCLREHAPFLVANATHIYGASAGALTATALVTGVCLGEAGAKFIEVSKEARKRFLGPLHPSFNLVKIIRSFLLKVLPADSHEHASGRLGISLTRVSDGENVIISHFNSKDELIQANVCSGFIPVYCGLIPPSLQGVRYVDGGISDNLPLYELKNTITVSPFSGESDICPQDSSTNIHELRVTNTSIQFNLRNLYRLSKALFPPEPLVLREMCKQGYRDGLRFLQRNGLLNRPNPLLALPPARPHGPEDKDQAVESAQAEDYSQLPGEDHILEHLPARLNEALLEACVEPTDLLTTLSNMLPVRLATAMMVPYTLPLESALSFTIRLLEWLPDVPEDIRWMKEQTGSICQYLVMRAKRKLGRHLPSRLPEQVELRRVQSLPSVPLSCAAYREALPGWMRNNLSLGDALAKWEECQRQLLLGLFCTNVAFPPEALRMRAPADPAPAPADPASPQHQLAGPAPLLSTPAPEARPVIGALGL
chain 2: MSMNKGPTLLDGDLPEQENVLQRVLQLPVVSGTCECFQKTYNSTKEAHPLVASVCNAYEKGVQGASNLAAWSMEPVVRRLSTQFTAANELACRGLDHLEEKIPALQYPPEKIASELKGTISTRLRSARNSISVPIASTSDKVLGATLAGCELALGMAKETAEYAANTRVGRLASGGADLALGSIEKVVEFLLPPDKESAPSSGRQRTQKAPKAKPSLVRRVSTLANTLSRHTMQTTAWALKQGHSLAMWIPGVAPLSSLAQWGASAAMQVVSRRQSEVRVPWLHNLAASQDESHDDQTDTEGEETDDEEEEEESEAEENVLREVTALPNPRGLLGGVVHTVQNTLRNTISAVTWAPAAVLGTVGRILHLTPAQAVSSTKGRAMSLSDALKGVTDNVVDTVVHYVPLPRLSLMEPESEFRDIDNPSAEAERKGSGARPASPESTPRPGQPRGSLRSVRGLSAPSCPGLDDKTEASARPGFLAMPREKPARRVSDSFFRPSVMEPILGRAQYSQLRKKS

Variants of: B1
ASSAY_METHOD_TEXT: LUMIER: Protein A-ATGL variant and firefly luciferase-partner co-expressed in HEK293T, lysates immunoprecipitated on IgG-coated plates, co-precipitated partner measured as luciferase luminescence
CONDITION_PARAMETERS: with perilipin-1, mouse (mPlin1), transient co-transfection, IgG-coated LUMITRAC plates, 2 h at 4 °C, three PBS washes, Bright-Glo luciferase reagent, triplicates per assay, two …, parent: 0.26, not graded, scale: log2 fold change of co-immunoprecipitated luminescence relative to wild-type ATGL within each experiment
EXPERIMENTAL_READOUT: screen value

MUTATION_NOTATION	REPORTED_RESULT
chain 1 R113K	-0.0594
chain 1 Q140A	-0.00146
chain 1 A434L	0.0211
chain 1 V328A	-0.205
chain 1 E314A	-0.247

Asked: screen value lookup needed for chain 1 S87E , thanks.
Given back: -0.527

Asked: screen value lookup needed for chain 1 G66A , thanks.
Given back: -0.406

Asked: screen value lookup needed for chain 1 G153K , thanks.
Given back: -0.674
